ASSAYED_TARGET: CYP1B1 F134L (Homo sapiens, UniProt Q16678, F134L)
Sequence (Q16678 whole entry F134L): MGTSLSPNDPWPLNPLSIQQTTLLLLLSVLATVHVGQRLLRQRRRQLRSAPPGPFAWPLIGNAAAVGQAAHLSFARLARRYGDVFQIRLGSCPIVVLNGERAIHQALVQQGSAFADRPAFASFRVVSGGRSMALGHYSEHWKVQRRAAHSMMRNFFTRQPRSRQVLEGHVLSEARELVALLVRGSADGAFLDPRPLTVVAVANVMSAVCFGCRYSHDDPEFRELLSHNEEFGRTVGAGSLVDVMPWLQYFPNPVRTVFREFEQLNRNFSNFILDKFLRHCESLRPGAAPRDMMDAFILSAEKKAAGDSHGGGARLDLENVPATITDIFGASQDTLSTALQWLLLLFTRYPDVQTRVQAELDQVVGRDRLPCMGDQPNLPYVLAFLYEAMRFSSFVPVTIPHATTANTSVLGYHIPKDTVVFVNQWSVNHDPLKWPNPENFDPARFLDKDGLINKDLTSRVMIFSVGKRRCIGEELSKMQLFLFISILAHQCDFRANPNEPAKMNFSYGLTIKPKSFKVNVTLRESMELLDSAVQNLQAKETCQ
PROTOCOL_TEXT: In cell CYP1B1 activity assay, F134L variant
PARAMETER: pIC50
Value format note: pIC50 is -log10 of concentration (mol/L); just state the number.

Supply pIC50 value. Item: COc1ccc(/C=C/c2ccncn2)c(OC)c1 [Compound 2]
6.62

###

PROTOCOL_TEXT: Stability of compounds in rat liver microsomes
CONDITION_DESCRIPTION: rat liver microsomes; no co-factor (no NADPH)
PARAMETER: Remaining, % (NCF=60min) (%)
The answer is to be given in %; state only the numeric part.

Supply Remaining, % (NCF=60min) value. Item: COc1cc(/C=C/c2ccc(OC)cc2OC)cc(OC)c1 [Compound 1, reference compound]
63.7

Supply Remaining, % (NCF=60min) value. Item: COc1ccc(C=Cc2ccncc2)c(OC)c1 [Compound 3]
108.6

Supply Remaining, % (NCF=60min) value. Item: C[C@]12CC[C@H]3[C@@H](CCC4=CC(=O)CC[C@@]43C)[C@@H]1CC[C@@H]2O [Testosterone, reference compound]
86.5

Proceed to the following item.
Supply Remaining, % (NCF=60min) value. Item: COc1ccc(/C=C/c2ccncn2)c(OC)c1 [Compound 2]
47.1

###

ASSAYED_TARGET: CYP1B1 Q332E (Homo sapiens, UniProt Q16678, Q332E)
Sequence (Q16678 whole entry Q332E): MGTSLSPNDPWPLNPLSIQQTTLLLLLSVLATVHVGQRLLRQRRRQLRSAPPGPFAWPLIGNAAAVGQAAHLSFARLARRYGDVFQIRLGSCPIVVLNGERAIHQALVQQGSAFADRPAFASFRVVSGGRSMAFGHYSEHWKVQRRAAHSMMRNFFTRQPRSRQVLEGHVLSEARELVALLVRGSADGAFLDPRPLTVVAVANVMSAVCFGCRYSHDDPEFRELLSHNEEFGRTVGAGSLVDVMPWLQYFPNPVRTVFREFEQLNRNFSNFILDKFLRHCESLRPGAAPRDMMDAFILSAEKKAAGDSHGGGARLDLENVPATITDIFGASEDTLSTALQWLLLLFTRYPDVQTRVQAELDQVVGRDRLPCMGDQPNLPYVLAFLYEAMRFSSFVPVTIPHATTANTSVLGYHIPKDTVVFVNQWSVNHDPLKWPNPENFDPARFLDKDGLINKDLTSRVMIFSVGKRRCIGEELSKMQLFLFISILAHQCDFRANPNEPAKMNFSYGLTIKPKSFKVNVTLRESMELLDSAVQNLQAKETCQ
PROTOCOL_TEXT: In cell CYP1B1 activity assay, Q332E variant
PARAMETER: pIC50
Value format note: pIC50 is -log10 of concentration (mol/L); just state the number.

Specify the recorded pIC50 for "COc1ccc(/C=C/c2ccncn2)c(OC)c1" , system: CYP1B1 Q332E (Homo sapiens, UniProt Q16678, Q332E).
6.40

###

PROTOCOL_TEXT: Stability of compounds in human liver microsomes
CONDITION_DESCRIPTION: human liver microsomes; no co-factor (no NADPH)
The following compounds are shown together with reported Remaining, % (NCF=60min) values.
The answer is to be given in %; state only the numeric part.

# annotated cases, reported Remaining, % (NCF=60min) shown
Supply Remaining, % (NCF=60min) value. Item: COc1cc(/C=C/c2ccc(OC)cc2OC)cc(OC)c1 [Compound 1, reference compound]
77.1

Supply Remaining, % (NCF=60min) value. Item: C[C@]12CC[C@H]3[C@@H](CCC4=CC(=O)CC[C@@]43C)[C@@H]1CC[C@@H]2O [Testosterone, reference compound]
82.5

Supply Remaining, % (NCF=60min) value. Item: "COc1ccc(/C=C/c2ccncn2)c(OC)c1"
96.5

Further cases:
Supply Remaining, % (NCF=60min) value. Item: "COc1ccc(C=Cc2ccncc2)c(OC)c1"
92.1

###

PROTOCOL_TEXT: Stability of compounds in rat liver microsomes
CONDITION_DESCRIPTION: rat, liver microsomes
The following compounds are shown together with reported half-life values.
The answer is to be given in min; state only the numeric part.

Supply half-life value. Item: "COc1ccc(/C=C/c2ccncn2)c(OC)c1"
6.75

Proceed to the following item.
Supply half-life value. Item: "COc1ccc(C=Cc2ccncc2)c(OC)c1"
10.4

###

ASSAYED_TARGET: CYP1B1 S269A (Homo sapiens, UniProt Q16678, S269A)
Sequence (Q16678 whole entry S269A): as the sequence (Q16678 whole entry Q332E) above, with S269A, E332Q counted along it
PROTOCOL_TEXT: In cell CYP1B1 activity assay, S269A variant
PARAMETER: IC50 (nM)
The answer is to be given in nM; state only the numeric part.

Supply IC50 value. Item: "COc1ccc(/C=C/c2ccncn2)c(OC)c1"
73

###

PROTOCOL_TEXT: Stability of compounds in human liver microsomes
CONDITION_DESCRIPTION: human, liver microsomes
PARAMETER: microsomal CLint (µL/min/mg)
The answer is to be given in µL/min/mg; state only the numeric part.

Supply microsomal CLint value. Item: "COc1ccc(C=Cc2ccncc2)c(OC)c1"
172

Further cases:
Supply microsomal CLint value. Item: "COc1ccc(/C=C/c2ccncn2)c(OC)c1"
201

###

The following molecules are shown together with reported half-life values.
PROTOCOL_TEXT: Stability of compounds in mouse liver microsomes
CONDITION_DESCRIPTION: mouse, liver microsomes
The answer is to be given in min; state only the numeric part.

Supply half-life value. Item: "COc1ccc(C=Cc2ccncc2)c(OC)c1"
2.89

Further cases:
Supply half-life value. Item: "COc1ccc(/C=C/c2ccncn2)c(OC)c1"
1.51

###

Test system: cytochrome P450 enzymes in phLMs
PROTOCOL_TEXT: Inhibition of cytochrome P450 enzymes in pooled human liver microsomes (phLM)
Type: biochemical
CONDITION_DESCRIPTION: Dark; conversion of 7-benzoyloxy-4-trifluoromethylcoumarin; read-out: IC50 phLM Dark
The following molecules are shown together with reported IC50 values.

Specify the recorded IC50 for "COc1ccc(/C=C/c2cc[n+]([Ru-4]345([n+]6ccccc6-c6cccc([n+]63)-c3cccc[n+]34)[n+]3c(cc(C(=O)[O-])c4ccccc43)-c3cc(C(=O)[O-])c4ccccc4[n+]35)cn2)c(OC)c1" , system: cytochrome P450 enzymes in phLMs.
> 30 µM

Further cases:
Specify the recorded IC50 for "COc1ccc(/C=C/c2cc[n+]([Ru-4]345([n+]6ccccc6-c6cccc([n+]63)-c3cccc[n+]34)[n+]3c(cc(C(=O)[O-])c4ccccc43)-c3cc(C(=O)[O-])c4ccccc4[n+]35)cc2)c(OC)c1" , system: cytochrome P450 enzymes in phLMs.
~30 µM

###

PROTOCOL_TEXT: Cellular viability (resazurin to resorufin, 72 h)
Type: cell-based, human
CONDITION_DESCRIPTION: human, parental HEK293 T-Rex cells, HEK293 T-Rex, after 72 hrs; Log Conc 1
PARAMETER: viability at 72 h, 10 μM (%)
The answer is to be given in %; state only the numeric part.

Supply viability at 72 h, 10 μM value. Item: "COc1ccc(/C=C/c2ccncn2)c(OC)c1"
64.5

###

PROTOCOL_TEXT: Cellular viability (resazurin to resorufin, 72 h)
Assay type: cell-based, human
CONDITION_DESCRIPTION: human, parental HEK293 T-Rex cells, HEK293 T-Rex, after 72 hrs; Log Conc 0.045757
The following compounds are shown together with reported viability at 72 h, 1.11 μM values.
The answer is to be given in %; state only the numeric part.

# annotated cases, reported viability at 72 h, 1.11 μM shown
Supply viability at 72 h, 1.11 μM value. Item: COc1cc(/C=C/c2ccc(OC)cc2OC)cc(OC)c1 [Compound 1, reference compound]
91.2

Supply viability at 72 h, 1.11 μM value. Item: "COc1ccc(/C=C/c2ccncn2)c(OC)c1"
97.3

Further cases:
Supply viability at 72 h, 1.11 μM value. Item: "COc1ccc(C=Cc2ccncc2)c(OC)c1"
96.6

###

PROTOCOL_TEXT: Cellular viability (resazurin to resorufin, 72 h)
Format: cell-based, human
CONDITION_DESCRIPTION: human, parental HEK293 T-Rex cells, HEK293 T-Rex, after 72 hrs; Log Conc 0.522879
PARAMETER: viability at 72 h, 3.33 μM (%)
The answer is to be given in %; state only the numeric part.

Supply viability at 72 h, 3.33 μM value. Item: "COc1ccc(/C=C/c2ccncn2)c(OC)c1"
79.8

Further cases:
Supply viability at 72 h, 3.33 μM value. Item: COc1cc(/C=C/c2ccc(OC)cc2OC)cc(OC)c1 [Compound 1, reference compound]
76.6

###

PROTOCOL_TEXT: Cellular viability (resazurin to resorufin, 72 h)
Assay type: cell-based, human
CONDITION_DESCRIPTION: human, parental HEK293 T-Rex cells, HEK293 T-Rex, after 72 hrs; Log Conc -0.43136
Description: The cells were >70% viable at 72 h with 10 μM compound, as quantified by metabolically active cells determined by the conversion of resazurin to resorufin (Supplementary Figs. 18–20). The parental HEK T-Rex cell line was maintained as above, in the absence of Zeocin. Compounds were serially diluted in media, and the cells were dosed from 0–30 μM compound, and then incubated at 37 °C (n = 3). […]
PARAMETER: viability at 72 h, 0.37 μM (%)
The answer is to be given in %; state only the numeric part.

# annotated cases, reported viability at 72 h, 0.37 μM shown
Supply viability at 72 h, 0.37 μM value. Item: COc1ccc(/C=C/c2ccncn2)c(OC)c1 [Compound 2]
85.2

Supply viability at 72 h, 0.37 μM value. Item: COc1cc(/C=C/c2ccc(OC)cc2OC)cc(OC)c1 [Compound 1, reference compound]
98.9

Further cases:
Supply viability at 72 h, 0.37 μM value. Item: COc1ccc(C=Cc2ccncc2)c(OC)c1 [Compound 3]
92.3

Reference source: paper PMC9233675
